assay: Toxicity liver stage against HepG2, at 10uM; format: cell-based; parameters: test concentration 10 uM, cell line HepG2-A16-CD81EGFP; settings: human, HepG2-A16-CD81EGFP cells; read-out: INHIBITION
Recorded cytotoxicity at 10 µM, one value per entry.
metric name: cytotoxicity at 10 µM (%)

>>> endpoint_value("CCOCC1CN(Cc2ccncc2)Cc2nn(C)cc21 (configuration not stated)")
-79.8
>>> endpoint_value("N#Cc1ccccc1CNC(C(=O)N1CCOCC1)c1ccccc1 (configuration not stated)")
11
>>> endpoint_value("O=S(=O)(c1cc(F)cc(F)c1)N1CCC(Oc2ccc(Cl)cn2)CC1")
-4.63
>>> endpoint_value("Cc1noc(C2(C)CCN(C(=O)C(C)C)CC2)n1")
-5.14
>>> endpoint_value("OC1CN(c2nc3c(C(F)(F)F)cccc3s2)C1")
-8.37
>>> endpoint_value("COc1ccc(C)cc1S(=O)(=O)N[C@H]1CN(C(C)=O)C[C@@H]1C1CC1")
-3.64
>>> endpoint_value("Cc1nn(C)c(C)c1C1COCCN1C(=O)NC1CC1 (configuration not stated)")
3.21
>>> endpoint_value("CCOc1ncccc1CNC(=O)c1cccc(C)n1")
-2.42
>>> endpoint_value("Cn1cnnc1CC1CCN(Cc2c(Cl)cncc2Cl)CC1")
-9.42
>>> endpoint_value("CN(C(=O)Cn1nc(-c2ccccc2F)ccc1=O)C1CCS(=O)(=O)C1 (configuration not stated)")
2.21
>>> endpoint_value("c1ccc(-n2ccnc2)c(CNCC2CNc3ccnn3C2)c1 (configuration not stated)")
-8.11
>>> endpoint_value("CCc1nc(CN(C(C)=O)C2CCN(CCc3cnn(C)c3)C2)no1 (configuration not stated)")
-6.38

###

experiment: Toxicity liver stage against HepG2, at 10uM; format: cell-based; design: test concentration 10 uM, cell line HepG2-A16-CD81EGFP; conditions: human, HepG2-A16-CD81EGFP cells; read-out: INHIBITION
metric name: cytotoxicity at 10 µM (%)

>>> endpoint_value("CCc1nc(CN2CCCC(NCc3ccc(C(N)=O)cc3)C2)no1 (stereo not drawn)")
-12.3
>>> endpoint_value("CN(C)S(=O)(=O)N1CCN(c2cc(-n3cccc3)ncn2)CC1")
0.781
>>> endpoint_value("Cc1nn(C)c(N(C)C)c1CNCc1cccnc1OC(C)C")
-0.924
>>> endpoint_value("O=c1[nH]c2c(c(=O)n1C1CCCCC1)CCC2Nc1ccccc1Cl (stereo not drawn)")
-10.4
>>> endpoint_value("CC(=O)N1CCCC2(CCN(C(=O)c3nn(C)c4ccccc34)CC2)C1")
2.26
>>> endpoint_value("CC(C)NC(=O)CN1CCC(c2cccc(F)c2)C1 (stereo not drawn)")
0.103
>>> endpoint_value("CC(C)n1cnc2c1C(C(=O)NCCO)N(Cc1ccccc1)CC2 (stereo not drawn)")
2.43
>>> endpoint_value("Cc1cc(C(=O)N2CCCC2c2noc(C)n2)[nH]n1 (stereo not drawn)")
-18.7
>>> endpoint_value("COCC(=O)N1CC[C@@H]2O[C@@H](C)C[C@H]2C1")
-69.6
>>> endpoint_value("CN1CCOC[C@H]1c1nc(-c2cccnc2)c[nH]1")
-0.405
>>> endpoint_value("CO[C@@H]1CC[C@H]2[C@H]1OCCN2C(=O)c1ccc(C)o1")
3.68
>>> endpoint_value("O=C(Nc1cccnc1)[C@@H]1CCO[C@@H]2CCN(Cc3cccnc3)C[C@@H]21")
4.78
>>> endpoint_value("COc1ccc(CN2CC3(CCNCC3)CCC2=O)c(F)c1F")
10.9
>>> endpoint_value("CC(Cn1cccn1)NCc1csc(-c2ncccn2)n1 (stereo not drawn)")
-14.7
>>> endpoint_value("CCC(C(=O)NCCc1ccn(-c2ccccc2)n1)N1CCCC1=O (stereo not drawn)")
6.18
>>> endpoint_value("CCCn1cnnc1-c1nc2c([nH]1)CC(c1ccc(Cl)cc1)CNC2=O (stereo not drawn)")
-31.1
>>> endpoint_value("CS(=O)(=O)N1CC2(CCN(C(=O)c3ccncc3)CC2)c2ccccc21")
2.23
>>> endpoint_value("CCCc1nnc(NC2CCN(C3CCOCC3)CC2)o1")
-4.92
>>> endpoint_value("CC(c1nc(C2CC2)no1)N1CCN(CCS(C)(=O)=O)CC1 (stereo not drawn)")
7.41
>>> endpoint_value("O=C(NCCC(=O)N1CCCc2ccccc21)c1c(O)cc(F)cc1F")
1.35
>>> endpoint_value("CC(C)C(=O)NCc1ccnc(Oc2ccc(F)cc2)c1")
6.06
>>> endpoint_value("Cc1ncsc1C(=O)N1CCCC(c2nccn2Cc2cscn2)C1 (stereo not drawn)")
-0.0612
>>> endpoint_value("COc1nn(C)cc1C(=O)NCC(=O)NCc1ccccn1")
-3.56
